FYI, the data here is from patent US8946257B2.

Subject Of Test: catalytic domain of human JAK2 (Homo sapiens, UniProt O60674)
Construct: the catalytic domain of human JAK2
Sequence (O60674 849-1124 limits assumed): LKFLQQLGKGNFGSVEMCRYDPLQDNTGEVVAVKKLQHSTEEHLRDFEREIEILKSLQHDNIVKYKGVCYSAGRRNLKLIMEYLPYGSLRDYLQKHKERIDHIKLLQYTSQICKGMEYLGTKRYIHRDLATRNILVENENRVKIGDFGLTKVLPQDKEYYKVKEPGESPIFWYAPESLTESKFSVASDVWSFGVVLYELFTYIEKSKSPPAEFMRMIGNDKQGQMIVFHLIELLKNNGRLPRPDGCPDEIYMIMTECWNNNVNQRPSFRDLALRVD
Method: Inhibition of JAK2 activity (Z'-Lyte Kinase Assay kit-Tyr 6 Peptide)
Format: biochemical
Each item that follows carries a reported inhibition at 1 µM.

Cc1ccn2ncc(-c3ncc4ncn([C@H]5CCCN(C(=O)CC#N)C5)c4n3)c2c1 = > 50%
O=c1[nH]c2ccc(-c3cnn4ccccc34)nc2n1C1CCOCC1 = > 50%

Please look at the following compound next.
// inhibition at 1 µM lookup, compound = CC(C)(C)NC(=O)N1CCC[C@H](n2c(=O)[nH]c3cnc(-c4cnn5ccc(C#N)cc45)nc32)C1 [Example 26d] , result: > 50%
